assay: Compound cytotoxicity, XTT-based colorimetric assay; type: cell-based; conditions: human; uninfected MT2 cells, day 4, XTT assay
quantity.name: CC50 at 4 day

Request: Which value of CC50 at 4 day has been reported for Cn1nc(NS(C)(=O)=O)c2c(Cl)ccc(-n3c([C@H](Cc4cc(F)cc(F)c4)NC(=O)Cn4nc(C(F)F)c5c4C(F)(F)[C@@H]4C[C@H]54)nc4nc(-c5ccc(F)cc5CO)ccc4c3=O)c21 (atropisomer, axis not shown; (P)) [Example 16] in the records?
Result: > 500 nM

Request: Now the molecule COc1nc2nc([C@H](Cc3cc(F)cc(F)c3)NC(=O)Cn3nc(C(F)(F)F)c4c3C(F)(F)[C@@H]3C[C@H]43)n(-c3ccc(Cl)c4c(NS(C)(=O)=O)nn(C)c34)c(=O)c2cc1-c1ccccc1F (atropisomer, axis not shown; (P)) [Example 31]
Result: > 500 nM

Request: Field entry: Cn1nc(NS(C)(=O)=O)c2c(Cl)ccc(-n3c([C@H](Cc4cc(F)cc(F)c4)NC(=O)Cn4nc(C(F)F)c5c4C(F)(F)[C@@H]4C[C@H]54)nc4nc(-c5ccc(F)c(Cl)c5F)ccc4c3=O)c21 (atropisomer, axis not shown; (P)) [Example 22]
Result: > 100 nM

###

Task for the reader: assign each of the following compounds its reported EC50.
test system: recombinant NL4-3 virus (Renilla luciferase) in MT-2 cells; test: HIV cell culture assay (antiviral activity, luciferase readout); assay type: cell-based; details: Renilla, NL43
Response body: numeric value in nM, unit text excluded.

Request: Need EC50, item Cn1nc(NS(C)(=O)=O)c2c(Cl)ccc(-n3c([C@H](Cc4cc(F)cc(F)c4)NC(=O)Cn4nc(C(F)F)c5c4C(F)(F)[C@@H]4C[C@H]54)nc4cc(-c5ccccc5F)cnc4c3=O)c21 (atropisomer, axis not shown; (P))
Result: 1.9

Request: And the next one, Cn1nc(NS(C)(=O)=O)c2c(Cl)ccc(-n3c([C@H](Cc4cc(F)cc(F)c4)NC(=O)Cn4ccc(C5CC5)n4)nc4nc(-c5ccccc5F)ccc4c3=O)c21 (atropisomer, axis not shown; (P)) ?
Result: 0.089

Request: What about Cn1nc(NS(C)(=O)=O)c2c(Cl)ccc(-n3c([C@H](Cc4cc(F)cc(F)c4)NC(=O)Cn4nc(C(F)F)c5c4C(F)(F)[C@@H]4C[C@H]54)nc4nc(-c5ccc(Cl)cc5Cl)ccc4c3=O)c21 (atropisomer, axis not shown; (P)) ?
Result: 0.42

Source: patent US20220089598A1
